Kd values for the compounds below.
biological target: Platelet glycoprotein VI (Homo sapiens, UniProt Q9HCN6); assay: Binding affinity to recombinant GP6 (unknown origin) at protein to compound ratio of 1 : 1 to 1 : 10 by 2D 15N-1H TROSY-HSQC NMR spectroscopy
Sequence (Q9HCN6 whole entry): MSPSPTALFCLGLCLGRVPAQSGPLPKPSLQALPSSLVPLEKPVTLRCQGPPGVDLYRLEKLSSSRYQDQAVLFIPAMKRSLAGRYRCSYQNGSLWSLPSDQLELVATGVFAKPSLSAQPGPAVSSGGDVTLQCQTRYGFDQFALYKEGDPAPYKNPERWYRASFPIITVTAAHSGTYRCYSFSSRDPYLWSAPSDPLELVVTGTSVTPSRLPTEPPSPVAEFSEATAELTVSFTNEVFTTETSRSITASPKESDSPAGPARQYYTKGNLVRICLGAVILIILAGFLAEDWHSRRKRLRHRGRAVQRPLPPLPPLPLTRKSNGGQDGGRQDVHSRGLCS
Readout type: Kd (µM)

structure=CCCc1nc(C(C)(C)O)c(C(=O)O)n1Cc1ccc(-c2ccccc2-c2nnn[nH]2)cc1 assay_value=300
structure=CCCCC(=O)N(Cc1ccc(-c2ccccc2-c2nnn[nH]2)cc1)[C@H](C(=O)O)C(C)C assay_value=100
structure=O=C(O)c1ccccc1-c1ccccc1 assay_value=1500
structure=c1ccc(-c2ccccc2-c2nn[nH]n2)cc1 assay_value=360
structure=c1ccc(-c2cccc(-c3nn[nH]n3)c2)cc1 assay_value=80
structure=Cc1ccccc1-c1nn[nH]n1 assay_value=1100
structure=c1ccc(CCOc2ccc(-c3ccccc3-c3nn[nH]n3)cc2)cc1 assay_value=52
structure=c1ccc(CCCCOc2ccc(-c3ccccc3-c3nn[nH]n3)cc2)cc1 assay_value=850

Every entry's value here was drawn from ChEMBL document CHEMBL4680264.
